Field Ki: reported value for Norepinephrine transporter (Rattus norvegicus); entries drawn from several documents.
Express the result in nM but write the number alone.

In the examples that follow, each entry is paired with its recorded Ki.
COMPOUND | Ki (nM)
Cc1ccc(Oc2ccc(F)cc2CN(C)C)c(N)c1 | 518
Cc1ccc(Sc2ccccc2CN(C)C)c(N)c1 | 325
CN(C)Cc1ccccc1Sc1ccc(/C=C/I)cc1N | 80.2
CN(C)C[C@H]1CC2c3ccccc3Oc3ccc(Cl)cc3[C@H]2O1 (stereo partly specified) | 9.4
CN(C)C[C@@H]1CC2c3ccccc3Sc3ccc(F)cc3[C@H]2O1 (stereo partly specified) | 2.7
C[C@@H]1CN(CCCN(c2ccccc2)c2ccccc2)C[C@@H](C)N1CCCc1ccccc1 | 3640

Entry under review: COc1ccccc1OC(c1cccc(I)c1)C1CNCCO1 (racemic) . Reported Ki?
15.4

Repeat for the following compound: `CN(C)Cc1cc(F)ccc1Oc1ccc(C#N)cc1N`
5550

Repeat for the following compound: CN(C)C[C@H]1CC2c3ccccc3Oc3ccc(Br)cc3[C@H]2O1 (stereo partly specified)
382

Repeat for the following compound: CN(C)C[C@H]1CC2c3ccccc3Sc3ccc(F)cc3[C@H]2O1 (stereo in doubt; 8d)
1.6

Repeat for the following compound: `C[C@@H]1CN(CCCN(c2ccccc2)c2ccccc2)C[C@@H](C)N1`
6810

Repeat for the following compound: `COc1cc(Cl)ccc1O[C@@H](c1ccccc1)[C@@H]1CNCCO1`
6

Repeat for the following compound: CN(C)C[C@@H]1CC2c3ccccc3Oc3ccc(Cl)cc3[C@H]2O1 (stereo partly specified)
88

Repeat for the following compound: `CN(C)Cc1ccccc1Sc1ccc(I)cc1N`
683
